Overview of recorded pIC50 for various compounds
Assay: Cytotoxicity against human MRC5 cells assessed as cell growth inhibition
Assay type: toxicity, cell-based
pIC50: −log10 of the molar value.
outcome-measure: pIC50

INSERT INTO results (compound_smiles, outcome_measure, censoring_operator, recorded_value) VALUES
  ('COc1c(O)ccc2c1C(=O)c1cc(C)ccc1C2=O', 'pIC50', '<', 5.00),
  ('COc1c(O)ccc2c(=O)c3cccc(C)oc=3c(=O)c12', 'pIC50', '=', 5.09),
  ('COc1ccc2c(c1OC)C(=O)c1cc(C)ccc1C2=O', 'pIC50', '<', 5.00),
  ('COc1ccc2c(=O)c3cccc(C)oc=3c(=O)c2c1OC', 'pIC50', '<', 5.00),
  ('COc1cccc2c1C(=O)c1c(O)c3c(c(O)c1C2=O)C[C@@](O)(C(=O)CO)C[C@@H]3O[C@H]1C[C@H](N)[C@H](O)[C@H](C)O1', 'pIC50', '=', 5.46);
